Test: Plasma pharmacokinetics in arthritic rats
Assay type: in vivo
Settings: Sprague-Dawley, rat, iv, i.v. 10 mg/kg, mean ± SD, n = 6, read-out: Cmax (maximum plasma concentration)
Procedure: The pharmacokinetics and tissue distribution of free Tri, Tri-BLs and HA@Tri-BLs were studied in arthritic rats. Sprague–Dawley (SD) rats weighing 250 ± 20 g were used to establish the arthritic model. The rats were acclimatized for 20 days in a standard animal room and provided with food and water ad libitum. On the 21st day, the rats were received injection of Freund’s complete adjuvant (FCA) containing 10 mg/mL of Mycobacterium tuberculosis (Sigma-Aldrich) at the right foot (Jia and He, [2016]). […]
quantityKind: Cmax (ng/mL)
Numeric answer only, unit ng/mL assumed.

Task: GET /values?readout=Cmax&item= "CC1=C(O)C(=O)C=C2C1=CC=C1[C@@]2(C)CC[C@@]2(C)[C@@H]3C[C@](C)(C(=O)O)CC[C@]3(C)CC[C@]12C"
Result: 22600
